Value source: PubChem BioAssay AID1159580

Experiment: chemical genetic growth profiling, strain panel (AID 1159580);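 also: tested at 20 µM; growth read once vehicle control cultures reached saturation at 30 °C; 1 = growth at the plate median or of vehicle wells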
Settings: S. cerevisiae deletion strains, growth OD, locus YDL005C, strain med2
The whole screen tested about 5,500 compounds, of which about 2,000 (36%) were called active. Not shown: some 18% with an inconclusive outcome. Rule as the data show it: active = normalized growth mostly below about 0.91 (no sharp cut-off); inconclusive = no clear call, values can overlap the other calls; inactive = mostly above about 0.92. The list shows a part of the results.
Valid outcomes are listed here; reply with one: 1 for active, -1 for inactive

Please review the entries below; each comes with its answer.
| compound | className |
| --- | --- |
| CCCC1O[C@@H]2CC3C4CCC5=CC(=O)C=CC5(C)C4[C@@H](O)CC3(C)[C@]2(C(=O)CO)O1 (stereo partly specified) | -1 |
| CN1C(CC(=O)c2ccccc2)CCCC1CC(O)c1ccccc1 (stereo unspecified) | -1 |
| OC[C@@H](O)[C@@H](O[C@@H]1O[C@H](CO)[C@@H](O)[C@H](O)[C@H]1O)[C@H](O)[C@@H](O)CO | -1 |
| COc1cc2c(c(OC)c1OC)-c1ccc(OC)c(=O)cc1[C@@H](NC(C)=O)CC2 | -1 |
| CC1(C)C(=O)C=C[C@@]2(C)C1=C(O)C(=O)[C@]1(C)C2CC[C@@]2(C)[C@H](c3ccoc3)C[C@H]3O[C@]321 (stereo partly specified) | -1 |

Lab log entry: CO[C@H]1/C=C/O[C@@]2(C)Oc3c(C)c(O)c4c(O)c(c5c(nc6cc(C)ccn65)c4c3C2=O)NC(=O)/C(C)=C\C=C\[C@H](C)[C@H](O)[C@@H](C)C(O)[C@@H](C)[C@H](OC(C)=O)[C@@H]1C (stereo partly specified) — outcome as called in the assay?
-1

Lab log entry: `O=C(O[C@@H]1Cc2c(O)cc(O)cc2O[C@@H]1c1cc(O)c(O)c(O)c1-c1c([C@H]2Oc3cc(O)cc(O)c3C[C@H]2O)cc(O)c(O)c1O)c1cc(O)c(O)c(O)c1` — outcome as called in the assay?
-1

Lab log entry: `CC(C)(C)NC[C@@H](O)COc1nsnc1N1CCOCC1` — outcome as called in the assay?
-1

---

Assay: chemical genetic growth profiling, strain panel (AID 1159580)
Conditions: S. cerevisiae deletion strains, growth OD, locus YDL185W, strain tfp1
Hit rate of the full screen: of about 5,500 compounds, about 2,000 (36%) were called active. About 18% were inconclusive and are not listed. No stated cut-off is given here; in the data, active means normalized growth mostly below about 0.91 (no sharp cut-off); inconclusive means no clear call, values can overlap the other calls; inactive means mostly above about 0.92. The list shows a part of the results.
Valid outcomes are listed here; reply with one: active, inactive

| compound | className |
| --- | --- |
| Cc1ccsc1/C=C/C1=NCCCN1C | inactive |

Lab log entry: `O=[N+]([O-])c1cc(O)c(O)c([N+](=O)[O-])c1` — outcome as called in the assay?
inactive

Lab log entry: CC1(C)C(C(Cl)Cl)C2(Cl)C(Cl)C(Cl)C1(Cl)C2(Cl)Cl (stereo not drawn) — outcome as called in the assay?
inactive

Lab log entry: COC(=O)C[C@H]1C(C)(C)C(=O)[C@@H]2CC3=C4CC(=O)O[C@@H](c5ccoc5)[C@]4(C)CCC3[C@@]1(C)C2=O (stereo partly drawn) — outcome as called in the assay?
inactive

Lab log entry: `C[n+]1cccc(C(=O)[O-])c1` — outcome as called in the assay?
inactive

Lab log entry: `COc1cc2c(c(OC)c1OC)-c1ccc(OC)c(=O)cc1[C@@H](NC(C)=O)CC2` — outcome as called in the assay?
inactive

Lab log entry: `C=C(C)[C@H]1CC=C(C(=O)O)CC1` — outcome as called in the assay?
active

Lab log entry: NCC(CC(=O)O)c1ccc(Cl)s1 (stereo not drawn) — outcome as called in the assay?
inactive

---

Experiment: chemical genetic growth profiling, strain panel (AID 1159580)
Conditions: S. cerevisiae deletion strains, growth OD, locus YCL061C, strain MRC1
Screen size: about 5,500 compounds; about 2,000 (36%) were called active. About 18% were inconclusive and are not listed. Cut-off read from the data, not from the text of the source: active = normalized growth mostly below about 0.91 (no sharp cut-off); inconclusive = no clear call, values can overlap the other calls; inactive = mostly above about 0.92. This is one part of the list.
Valid outcomes are listed here; reply with one: Yes = active, No = inactive

Please review the entries below; each comes with its answer.
| molecule | className |
| --- | --- |
| COC(=O)c1ccc(-c2ccc(Cl)cc2)s1 | Yes |
| CC(C)c1ccc(NC(=S)NC(=O)c2ccc(C(F)(F)F)cc2)cc1 | No |
| Oc1c(I)cc(Cl)c2cccnc12 | Yes |
| O=C(O)c1ccccc1Nc1ccccc1 | Yes |
| CN(C)CCOC(C)(c1ccccc1)c1ccccn1 (configuration not stated) | No |

Lab log entry: `C=C(CC)C(=O)c1ccc(OCC(=O)O)c(Cl)c1Cl` — outcome as called in the assay?
No

Lab log entry: O=C(O)CCCCC1CCSS1 (configuration not stated) — outcome as called in the assay?
No

Lab log entry: C=CC(C1=CC(=O)C(OC)=CC1=O)c1ccccc1 (configuration not stated) — outcome as called in the assay?
Yes

Lab log entry: `CN(C)CCOc1ccc(/C(=C(/CCCl)c2ccccc2)c2ccccc2)cc1` — outcome as called in the assay?
Yes

Lab log entry: `Oc1c(Br)cc(Br)c2cccnc12` — outcome as called in the assay?
Yes

Lab log entry: `O=C(NNC(=S)Nc1ccc(F)cc1)c1ccccc1Cl` — outcome as called in the assay?
No

Lab log entry: CC(=O)O[C@H]1C[C@@H](OC(C)=O)C(C)(C)C2C[C@@H](OC(C)=O)[C@@]3(C)C4=CC(=O)O[C@@H](c5ccoc5)[C@]4(C)CCC3[C@]21C (some centres not stated) — outcome as called in the assay?
No

---

Experiment: chemical genetic growth profiling, strain panel (AID 1159580);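 also: tested at 20 µM; growth read once vehicle control cultures reached saturation at 30 °C; 1 = growth at the plate median or of vehicle wells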
Settings: S. cerevisiae deletion strains, growth OD, locus YGR078C, strain PAC10
Screen size: about 5,500 compounds; about 2,000 (36%) were called active. Inconclusive results (about 18%) are left out. Cut-off read from the data, not from the text of the source: active = normalized growth mostly below about 0.91 (no sharp cut-off); inconclusive = no clear call, values can overlap the other calls; inactive = mostly above about 0.92. The list shows a part of the results.
Valid outcomes are listed here; reply with one: active, inactive

| compound | className |
| --- | --- |
| CC(C)(C)NS(=O)(=O)NC(C)(C)C | inactive |

Lab log entry: CSCCC(NC=O)C(=O)NC(C)C(=O)O (stereo not given) — outcome as called in the assay?
inactive

Lab log entry: `COc1ccc(CCNC(=S)Nc2cccc(C(F)(F)F)c2)cc1OC` — outcome as called in the assay?
inactive

Lab log entry: `CCOP(=S)(OCC)SCn1c(=O)oc2cc(Cl)ccc21` — outcome as called in the assay?
inactive

Lab log entry: `O=C(/C=N\Nc1ccccc1)Nc1ccccc1C(=O)O` — outcome as called in the assay?
active

Lab log entry: `O=C(Nc1ccccc1F)C(Cl)Cl` — outcome as called in the assay?
inactive

Lab log entry: CC1(C)C(=O)C=C[C@@]2(C)C1=C(O)C(=O)[C@]1(C)C2CC[C@@]2(C)[C@H](c3ccoc3)C[C@H]3O[C@]321 (stereo not given in full) — outcome as called in the assay?
active

Lab log entry: `Cc1oc(S(=O)(=O)N(C)C)cc1C(=O)O` — outcome as called in the assay?
inactive

Lab log entry: `C[n+]1cccc(C(=O)[O-])c1` — outcome as called in the assay?
inactive

---

Assay: chemical genetic growth profiling, strain panel (AID 1159580);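 also: tested at 20 µM; growth read once vehicle control cultures reached saturation at 30 °C; 1 = growth at the plate median or of vehicle wells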
Conditions: S. cerevisiae deletion strains, growth OD, locus YGR229C, strain SMI1, stronger effect = lower value
Hit rate of the full screen: of about 5,500 compounds, about 2,000 (36%) were called active. About 18% were inconclusive and are not listed. The list shows a part of the results.
readoutType: normalized growth
The response must contain the number and no unit.

Would you please look over these solved cases?
| molecule | normalized growth |
| --- | --- |
| CC(=O)O[C@@H]1C[C@@]2(C)[C@H](c3ccoc3)C[C@H]3O[C@]32[C@]2(C)C(=O)C(O)=C3C(C)(C)C(=O)C=C[C@]3(C)C12 (some centres undefined) | 0.787 |
| O=C(COC(=O)c1ccccc1Nc1ccccc1)c1ccc(Cl)cc1 | 0.98 |

Given the molecule `O=C(/C=N\Nc1ccccc1)Nc1ccccc1C(=O)O` , write its reported normalized growth.
1.02

Given the molecule CC(=O)O[C@@H]1CC2C(C)(C)C=CC(=O)[C@]2(C)C2CC[C@@]3(C)[C@H](c4ccoc4)OC(=O)C4OC43[C@@]21C (some centres undefined) , write its reported normalized growth.
1.04

---

Assay: chemical genetic growth profiling, strain panel (AID 1159580);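 also: tested at 20 µM; growth read once vehicle control cultures reached saturation at 30 °C; 1 = growth at the plate median or of vehicle wells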
Settings: S. cerevisiae deletion strains, growth OD, locus YNR052C, strain pop2
About 2,000 (36%) of roughly 5,500 compounds were called active. Roughly 18% stayed inconclusive and do not appear here. No stated cut-off is given here; in the data, active means normalized growth mostly below about 0.91 (no sharp cut-off); inconclusive means no clear call, values can overlap the other calls; inactive means mostly above about 0.92. This is one part of the list.
Valid outcomes are listed here; reply with one: True for active, False for inactive

Please review the entries below; each comes with its answer.
| compound | className |
| --- | --- |
| CC1(C)CC2C1(O)CCC1(C)C=CC(O)C21CO (stereo not given) | False |
| Cc1c(O)c(O)cc2c1CC=C1[C@@]2(C)CC[C@@]2(C)C3C[C@](C)(C(=O)O)CC[C@]3(C)CC[C@]12C (stereo not given in full) | False |
| O=C1O[C@H](C(O)CO)C(O)=C1O (stereo not given in full) | False |
| C=CC(C1=CC(=O)C(OC)=CC1=O)c1ccccc1 (stereo not given) | False |
| C=CC(C1=CC(=O)C(OC)=CC1=O)c1ccc(OC)cc1 (stereo not given) | True |
| COC(=O)C[C@H]1C(C)(C)C(=O)[C@@H]2CC3=C4CC(=O)O[C@@H](c5ccoc5)[C@]4(C)CCC3[C@@]1(C)C2=O (stereo not given in full) | False |
| C=C[C@@H](C1=CC(=O)C(OC)=C(OC)C1=O)c1ccccc1 | False |
| C1CNCCN1 | False |

Lab log entry: CCCCC(CC)CN1CN(CC(CC)CCCC)CC(C)(N)C1 (stereo not given) — outcome as called in the assay?
True

Lab log entry: CC(=O)OCC1(C)CCC2(C)CCC3(C)C4=CCc5c(cc(OC(C)=O)c(OC(C)=O)c5C)C4(C)CCC3(C)C2C1 (stereo not given) — outcome as called in the assay?
False
